Data origin, for the record: paper PMC12621045

Tested on: MARK2
Test: ADP-Glo biochemical kinase assay
Decide by ΔNUAK1: NUAK1 pIC50 minus MARK2 pIC50: equal to or exceeding 2 means Y, less means N.

> print(dat)
                                   compound  group.label
1  CCN(CC)C(=O)c1ccc(Nc2nc(OCC3CCCCC3)c3nc[nH]c3n2)cc1 [Compound 5, reference compound]            Y
2  CC(C)N1CCN(c2ccc(Nc3nc(OCC4CC4(F)F)c4cc[nH]c4n3)cc2)CC1 (centres unmarked)            Y
3  CN1C2CC1CN(c1ccc(Nc3nc(OCC4CC4)c4cc[nH]c4n3)cc1)C2            Y
4  CN1CCN(c2cccc(Nc3nc(OCC4CCCCC4)c4nc[nH]c4n3)c2)CC1            Y
5  NC(=O)c1ccc(Nc2nc(OCC3CCCCC3)c3nc[nH]c3n2)cc1            Y
6  CN1CCN(c2ccc(Nc3nc(OCC4CCCCC4)c4nc[nH]c4n3)cc2)CC1            N
